These data points were gathered from PubChem BioAssay (NCI).

assay comment: NCI Yeast Anticancer Drug Screen. Data for the rad50 strain (AID 155);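 also: 0% = growth of vehicle-only cultures of the same strain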
assay conditions: S. cerevisiae rad50 strain growth inhibition; at 50.0 µM; hits give high values
This is part of a sample that, as a whole, favours compounds with a hit. Of some 79,000 tested, about 15% had one in any assay. Activity calls are given as the source filed them. Rule as the data show it: active = growth inhibition above about 70%; inactive = the rest.
Measured growth inhibition values are reported for all entries that follow.
readout label: growth inhibition

[
  {
    "compound": "COc1cc2c(cc1O)C(Cc1ccc(OC)c(OC)c1)N(C)CC2 (configuration not stated)",
    "result": "4.25% (inactive)"
  },
  {
    "compound": "CO/C(N)=C(\\C#N)N=Cc1ccc2ccccc2c1",
    "result": "30.9% (inactive)"
  },
  {
    "compound": "COc1cc(/C=N\\NC(=O)OC(C)(C)C)cc(OC)c1OC",
    "result": "6.25% (inactive)"
  },
  {
    "compound": "O=C(/C(=N/N=C\\c1ccc([N+](=O)[O-])cc1)c1ccccc1)c1ccccc1",
    "result": "-10.6% (inactive)"
  },
  {
    "compound": "CC1=NOC(=O)C1C(C)(C)C1C(=O)ON=C1C (configuration not stated)",
    "result": "8.25% (inactive)"
  },
  {
    "compound": "COc1cc(/C=C2\\CN(C)C(=O)C2=O)ccc1O",
    "result": "-11.7% (inactive)"
  },
  {
    "compound": "OCNC(=S)c1c(Cl)cccc1Cl",
    "result": "-4.25% (inactive)"
  },
  {
    "compound": "N#CC1(C#N)C2CCCCC23OC(=N)C1(C#N)C(c1ccco1)O3 (configuration not stated)",
    "result": "15.8% (inactive)"
  },
  {
    "compound": "CCCCCCCCCCCC(=O)CCCCC",
    "result": "-29.5% (inactive)"
  },
  {
    "compound": "C/C=C(/C)N(C(C)=O)N(C(C)=O)c1ccc([N+](=O)[O-])cc1[N+](=O)[O-]",
    "result": "5.75% (inactive)"
  },
  {
    "compound": "Cc1n[nH]c(=O)n(/N=C\\c2c[nH]c3ccccc23)c1=O",
    "result": "0.2% (inactive)"
  },
  {
    "compound": "C=C1C(=O)OC2CC(C)C3(O)CCC(=O)C3(C)CC12 (configuration not stated)",
    "result": "-14.8% (inactive)"
  }
]
